Target: beta-catenin/TCF4 engagement (Homo sapiens)
Construct: expressed in transfected cells; host or cells: HEK293
Sequence (P35222 whole entry): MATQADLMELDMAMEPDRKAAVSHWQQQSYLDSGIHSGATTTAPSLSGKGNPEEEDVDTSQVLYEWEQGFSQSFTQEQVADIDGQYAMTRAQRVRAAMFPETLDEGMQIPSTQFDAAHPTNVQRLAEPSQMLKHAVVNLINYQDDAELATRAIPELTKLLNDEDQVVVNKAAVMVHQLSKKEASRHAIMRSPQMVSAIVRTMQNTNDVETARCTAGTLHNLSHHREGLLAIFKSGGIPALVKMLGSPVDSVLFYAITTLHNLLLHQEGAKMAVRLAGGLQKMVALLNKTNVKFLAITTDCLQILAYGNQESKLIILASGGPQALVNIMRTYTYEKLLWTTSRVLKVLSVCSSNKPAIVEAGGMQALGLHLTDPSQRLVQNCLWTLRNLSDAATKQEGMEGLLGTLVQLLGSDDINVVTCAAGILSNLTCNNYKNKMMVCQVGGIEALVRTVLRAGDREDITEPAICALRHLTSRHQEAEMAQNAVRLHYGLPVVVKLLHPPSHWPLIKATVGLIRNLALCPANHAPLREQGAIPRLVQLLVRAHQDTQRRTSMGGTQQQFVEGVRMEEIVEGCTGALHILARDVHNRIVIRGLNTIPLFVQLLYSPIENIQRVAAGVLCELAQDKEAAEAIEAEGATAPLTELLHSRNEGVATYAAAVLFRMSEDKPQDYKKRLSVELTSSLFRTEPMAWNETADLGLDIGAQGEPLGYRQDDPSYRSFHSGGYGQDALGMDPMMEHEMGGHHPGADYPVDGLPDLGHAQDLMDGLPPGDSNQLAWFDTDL
Assay: Nano-BRET target engagement assay (B-cat-Halo & TCF4-Luc in HEK293 cells)
Type: cell-based
Conditions: absolute IC50; read-out: NanoBRET Abs IC50
Each record here notes measured IC50.
Give just the number in µM; leave the unit off.

>  <compound>
CC(=O)N1CCC[C@]12CC=CCCCC1(CCCC=CCCCCCC[C@@](C)(C(=O)N[C@@H](Cc3ccccc3C(F)(F)F)C(=O)N[C@@H](Cc3csc4ccccc34)C(=O)N[C@@H](CCC(N)=O)C(N)=O)NC(=O)[C@H](CC(N)=O)NC(=O)[C@H](Cc3ccccc3)NC(=O)[C@H](C)NC(=O)[C@H](C)NC(=O)[C@H](CC(=O)O)NC(=O)[C@H](CC(=O)O)NC1=O)NC(=O)[C@H](CC(C)(C)C)NC(=O)[C@H](CC(=O)O)NC2=O (stereo partly drawn)

>  <outputUnit>
µM

>  <IC50>
15.3

$$$$

Proceed to the following item.
Bench note: what IC50 did CCCC[C@@H]1NC(=O)[C@H](CC(=O)O)NC(=O)[C@]2(CC=CCCCC3(CCCC=CCCCOC(=O)N4CC[C@@](C(=O)N[C@@H](Cc5ccsc5)C(=O)N[C@@H](Cc5csc6ccccc56)C(=O)N[C@@H](CC(C)C)C(N)=O)(C4)NC(=O)[C@H](CC(C)C)NC(=O)[C@H](Cc4ccccc4)NC(=O)[C@H](C)NC(=O)[C@H](C)NC(=O)[C@H](CC(=O)O)NC(=O)[C@H](CC(=O)O)NC3=O)NC1=O)CCCN2C(C)=O (stereo partly drawn) [I-1411] show?
47.1
